growth inhibition for assorted molecules
- Assay protocol: NCI Yeast Anticancer Drug Screen. Data for the cln2 rad14 strain (AID 165);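 note: 0% = growth equal to vehicle treated cultures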
- Applied conditions: S. cerevisiae cln2 rad14 strain, at 50.0 µM, hits give high values
This is part of a sample that, as a whole, favours compounds with a hit. Of some 79,000 tested, about 15% had one in any assay.
# value in %; strip the unit string

Would you mind telling me what growth inhibition value was observed for COC(=O)Oc1nn(C(=O)OC)c(=O)c2ccccc12 (tested in a mixture with another compound) ? -0.8

Give its growth inhibition value. Item: COc1cc([C@@H]2OC(=O)C3C2C(=O)O[C@H]3c2ccc(O)c(OC)c2)ccc1O (some centres undefined) 17.4

Looking for the measured growth inhibition of `CC(=O)OCN(C)C=O` , can you help? 14.5

Can you look up the measured growth inhibition of `O=C(COc1cccc(Cl)c1)Nc1ccccc1` for me? -17.1

###

- Assay protocol: NCI Yeast Anticancer Drug Screen. Data for the mlh1 rad18 strain (AID 175)
- Applied conditions: S. cerevisiae mlh1 rad18 strain growth inhibition; at 50.0 µM; hits give high values
- Experimental: Growth inhibition of yeast strains with defined genetic alterations is measured as a screen for potential anti-cancer activity. Selected strains with alterations in DNA damage repair or cell cycle control were exposed to compounds and growth inhibition was measured relative to vehicle treated controls. The strain used in this assay is mlh1 rad18
Compounds without any hit were thinned out: in the full panel of roughly 79,000, 15% have a hit.
Measured parameter: growth inhibition (%)
Expressed in %, but write only the number.

>>> assay_value("Cc1cccc(C(=O)OCc2ccccc2CN2CCCC2)c1")
-1.45
>>> assay_value("CCCCCC/C(C)=N\\NC(N)=O")
-23.1
>>> assay_value("Clc1ccccc1-n1cccc1/C=N\\N=C/c1cccn1-c1ccccc1Cl")
-8
>>> assay_value("CN1C(=O)NC(C)(C)C1=O")
-4.95
>>> assay_value("Cc1ccc(NC(=O)C(=O)Cc2cc[n+]([O-])cc2)cc1")
4.05

Consider the compound shown here: `BrCCCCCBr` What is its recorded growth inhibition? 15.6

Name the recorded growth inhibition for `COc1cc(/C=C/C(C)=O)ccc1OP(=O)(O)O` . 7.65

Any idea what its growth inhibition is? The compound is `CCOC(=O)c1noc(Oc2ccc(Cl)cc2Cl)n1` 15.1

May I ask what growth inhibition has been recorded for `c1ccc(B2Nc3ccccc3O2)cc1` ? 39.5

###

Parameter: growth inhibition. Scope: all listed entries.
- Assay protocol: NCI Yeast Anticancer Drug Screen. Data for the bub3 strain (AID 167)
- Applied conditions: S. cerevisiae bub3 mutant strain, at 50.0 µM, hits give high values
Compounds without any hit were thinned out: in the full panel of roughly 79,000, 15% have a hit.
Write the answer as a number in %, unit excluded.

>>> assay_value("CCOC(=O)c1[nH]c(CC(=O)O)c(C(=O)O)c1C")
16.4
>>> assay_value("Cc1cnccc1P(=O)(O)O")
-3.55
>>> assay_value("COc1cc2c(c(Cl)c1O)C(=O)OC2")
-6.8

Requested field: growth inhibition. Item: `CCOC(OCC)C(=O)NNC(C)C` 10

growth inhibition for `FC12CCC(F)(CC1)CC2` ? 7.6

###

Measured growth inhibition accompanies every entry in the list below.
- Assay protocol: NCI Yeast Anticancer Drug Screen. Data for the sgs1 mgt1 strain (AID 161);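 note: 0% = growth of cultures given vehicle only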
- Applied conditions: S. cerevisiae sgs1 mgt1 strain, at 50.0 µM, hits give high values
About 79,000 compounds went through this panel and 15% of them were active in at least one assay; those are over-represented in the sample as a whole.
Express it in %; write the number only.

Solved entries (count: 10):
>>> assay_value("Clc1ccc(SCCCCSc2ccc(Cl)cc2)cc1")
7.7
>>> assay_value("CN(C)CC1(Cc2ccccc2)CCC(Cc2ccccc2)C1=O (configuration not stated)")
85.3
>>> assay_value("CC(=O)OCCOCNC(=S)NCc1ccco1")
-40
>>> assay_value("CC(=O)c1ccccc1C(C)c1ccc(C)c2ccccc12 (configuration not stated)")
6.75
>>> assay_value("CCC(=O)n1cc2ccc([N+](=O)[O-])cc2n1")
-4
>>> assay_value("Cc1ccc(S(=O)(=O)N(c2c(F)cc(C#N)cc2F)S(=O)(=O)c2ccc(C)cc2)cc1")
32.8
>>> assay_value("c1ccc2sc(SCSc3nc4ccccc4s3)nc2c1")
-18.1
>>> assay_value("CCOC(=O)COc1c(C)cccc1Cl")
-0.25
>>> assay_value("c1ccc(CC2COC(c3cccs3)=N2)cc1 (configuration not stated)")
21.6
>>> assay_value("Cc1cc(S(=O)(=O)O)cc(C(C)(C)C)c1O")
6.3

May I ask what growth inhibition has been recorded for COc1ccc(CCC(O)c2ccccc2)cc1 (configuration not stated) ? 3.65

Record request: growth inhibition value, item `C/C(=N\N=P(c1ccccc1)(c1ccccc1)c1ccccc1)c1ccccc1` 9.35

###

- Assay protocol: NCI Yeast Anticancer Drug Screen. Data for the mlh1 rad18 strain (AID 175)
- Applied conditions: S. cerevisiae mlh1 rad18 strain growth inhibition; at 50.0 µM; hits give high values
The panel holds about 79,000 compounds, 15% with a hit somewhere; the sample as a whole holds those more often.
The threshold is inclusive: growth inhibition of exactly -30% counts as Condition met; values below receive Condition not met.

Recorded results for 2 compounds are shown here.
>>> group("C1C[S][Ge]2([S]CCS1)[S]CCSCC[S]2")
"Condition met"
>>> group("Cn1c(=O)n2c(-c3ccccc3)c(-c3ccccc3)n2c1=O")
"Condition met"

Is it the case that `COc1cccc([N+](=O)[O-])c1` has growth inhibition reaching or exceeding -30%? Condition met

Is growth inhibition for `C[N+](C)(C)/N=C/c1ccc(O)c(O)c1` at or above -30%? Condition met

In plain terms: is recorded growth inhibition at least -30% for `O=C(c1ccccc1)c1cccnc1` ? Condition not met

Determine whether measured growth inhibition meets or exceeds -30% for `NC(=O)NC(=O)c1ccccc1` Condition met

###

- Assay protocol: NCI Yeast Anticancer Drug Screen. Data for the cln2 rad14 strain (AID 165);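 note: 0% = growth equal to vehicle treated cultures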
- Applied conditions: S. cerevisiae cln2 rad14 strain, at 50.0 µM, hits give high values
About 79,000 compounds went through this panel and 15% of them were active in at least one assay; those are over-represented in the sample as a whole.
Measured parameter: growth inhibition (%)
// units = %; emit number, no label

I have this molecule here, O=C1[C@H]2ON(c3ccccc3)C(c3ccc(Cl)cc3)[C@H]2C(=O)N1c1ccc(Cc2ccc(N3C(=O)[C@@H]4ON(c5ccccc5)C(c5ccc(Cl)cc5)[C@@H]4C3=O)cc2)cc1 (stereo not given in full) , and I need its recorded growth inhibition. 26.4

Would you mind telling me what growth inhibition value was observed for CCC(C)C(C(=O)OCCC[N+]1(C)CCCCC1)c1ccccc1 (stereo not given) ? -4.4

Entry under review: `C[N+](C)(C)/N=C/c1ccc(O)c(O)c1` . Reported growth inhibition? -16

Request the reported growth inhibition associated with COc1ccc(C2=NOC(c3ccc(OC)cc3)C2)cc1 (stereo not given) -13.8

Endpoint output: growth inhibition of `O=C(Nc1nc2ncn(CCNCc3ccccc3)c2c(=O)[nH]1)c1ccccc1` . Value? 10.6

Tell me the measured growth inhibition of O=C1CCC2(c3ccc(Cl)cc3)SCCN12 (stereo not given) , please. 2.75

###

- Assay protocol: NCI Yeast Anticancer Drug Screen. Data for the mlh1 rad18 strain (AID 175)
- Applied conditions: S. cerevisiae mlh1 rad18 strain growth inhibition; at 50.0 µM; hits give high values
- Procedure: Growth inhibition of yeast strains with defined genetic alterations is measured as a screen for potential anti-cancer activity. Selected strains with alterations in DNA damage repair or cell cycle control were exposed to compounds and growth inhibition was measured relative to vehicle treated controls. The strain used in this assay is mlh1 rad18
Compounds without any hit were thinned out: in the full panel of roughly 79,000, 15% have a hit.
Each entry below lists one item and its recorded growth inhibition value.
Give the number; % is assumed, so skip it.

Worked examples follow.
>>> assay_value("O=C(O)C(=C\\c1ccccc1)/C(=C\\c1ccccc1)C(=O)OCc1ccccc1")
8.4
>>> assay_value("O=[N+]([O-])c1ccc(N/N=C/c2ccc(CO)cc2)c([N+](=O)[O-])c1")
17.2
>>> assay_value("O=C1NCC(c2ccccc2)(C2CC2)O1 (stereo unspecified)")
-27.1

Now let's try a different one.
Using the record for `CCOC(=O)/C(=N/Nc1ccc(C)cc1)N1C(=S)C=C(C)NN(C)C1=S` , report its growth inhibition. -30.9

###

- Assay protocol: NCI Yeast Anticancer Drug Screen. Data for the sgs1 mgt1 strain (AID 161);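 note: 0% = growth of cultures given vehicle only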
- Applied conditions: S. cerevisiae sgs1 mgt1 strain, at 50.0 µM, hits give high values
Compounds without any hit were thinned out: in the full panel of roughly 79,000, 15% have a hit.
Measured parameter: growth inhibition (%)
Unit % implied. Number only.

>>> assay_value("CN1/C(=C/C=C/C=C/C=C2C(=O)c3ccccc3C2=O)C(C)(C)c2ccccc21")
16.1

I have this compound here, `COc1ccc(C)cc1NS(=O)(=O)c1ccccc1` , and I need its recorded growth inhibition. -8.2

Name the recorded growth inhibition for Nc1nc2c(c(=O)[nH]1)NC(CCNc1ccc(C(=O)NC(CCC(=O)O)C(=O)O)cc1)CN2 (configuration not stated) . 25.6
